Test: Cell Viability - LYMP2-005 (AID 967);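 also: cells exposed to compound for 24 h at 37 °C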
Settings: LYMP2-005 lymphoblastoid cell viability; series mostly up to 92.2 µM
Inconclusive results are not listed. Activity calls are given as the source filed them. Calls follow the shape of the dose curve; as a rule, active = well fitted cell-killing curve with a large enough effect; inconclusive = small, poorly fitted or top-dose-only effect, or effect the other way; inactive = no such curve, though single readings can be large or run the other way.
Entry note: the call must match one of T for active, F for inactive

// param item: `O=C1OC(c2ccc(O)cc2)(c2ccc(O)cc2)c2ccccc21` ; yields the recorded call
F

// param item: `COC1=CC(=O)C[C@@H](C)[C@]12Oc1c(Cl)c(OC)cc(OC)c1C2=O` ; yields the recorded call
F

// param item: `O=C(O)CCCCC(=O)O` ; yields the recorded call
F

// param item: `C[C@]12CC[C@@H]3c4ccc(O)cc4CC[C@H]3[C@@H]1CC[C@@H]2O` ; yields the recorded call
F

// param item: `Oc1ccc(O)cc1` ; yields the recorded call
T

// param item: `CN(C)/N=N/c1nc[nH]c1C(N)=O` ; yields the recorded call
F

// param item: `CC(=O)Oc1ccc(C(c2ccc(OC(C)=O)cc2)c2ccccn2)cc1` ; yields the recorded call
F

// param item: `Nc1ccc(C(=O)O)cc1` ; yields the recorded call
F

// param item: `COc1cccc2c1C(=O)c1c(O)c3c(c(O)c1C2=O)C[C@@](O)(C(=O)CO)C[C@@H]3O[C@H]1C[C@H](N)[C@H](O)[C@H](C)O1` ; yields the recorded call
T

// param item: `CCCCCCc1ccc(O)cc1O` ; yields the recorded call
F

// param item: `O=c1ccc2ccccc2o1` ; yields the recorded call
F

// param item: `CC/C(=C(/CC)c1ccc(O)cc1)c1ccc(O)cc1` ; yields the recorded call
F
